Origin of the recorded values: ChEMBL document CHEMBL5724914

conditions: human gut metagenome, 24 h, 2 µM; further: call rule not given here
quantity_measured: Bacterial Biotransformation

Consider the following illustrative entries.
compound="COc1ccccc1N1CCN(CC(O)COc2cccc3ccccc23)CC1 (stereo unspecified) [NAFTOPIDIL]" endpoint_value="Compound NOT metabolized"
compound="CC[C@H](C)C(=O)O[C@H]1C[C@@H](C)C=C2C=C[C@H](C)[C@H](CC[C@@H]3C[C@@H](O)CC(=O)O3)[C@H]21 [LOVASTATIN]" endpoint_value="Compound metabolized"
compound="CN1C[C@H](C(=O)N[C@]2(C)O[C@@]3(O)[C@@H]4CCCN4C(=O)[C@H](Cc4ccccc4)N3C2=O)C=C2c3cccc4[nH]cc(c34)C[C@H]21.CN1C[C@H](C(=O)N[C@]2(C)O[C@@]3(O)[C@@H]4CCCN4C(=O)[C@H](Cc4ccccc4)N3C2=O)C=C2c3cccc4[nH]cc(c34)C[C@H]21.O=C(O)C(O)C(O)C(=O)O [ERGOTAMINE TARTRATE]" endpoint_value="Compound metabolized"
compound="CC(Oc1c(Cl)cccc1Cl)C1=NCCN1 (stereo unspecified) [LOFEXIDINE]" endpoint_value="Compound metabolized"
compound="OCCOCCN1CCN(C2=Nc3ccccc3Sc3ccccc32)CC1 [QUETIAPINE]" endpoint_value="Compound NOT metabolized"

We now examine a further compound.
## Input Which measured Bacterial Biotransformation value corresponds to CC(C)(C#N)c1cc(Cn2cncn2)cc(C(C)(C)C#N)c1 [ANASTROZOLE] ?
## Output Compound metabolized
